- SYSTEM NAME: 5-hydroxytryptamine receptor 2A (Homo sapiens)
- Sequence (P28223 whole entry): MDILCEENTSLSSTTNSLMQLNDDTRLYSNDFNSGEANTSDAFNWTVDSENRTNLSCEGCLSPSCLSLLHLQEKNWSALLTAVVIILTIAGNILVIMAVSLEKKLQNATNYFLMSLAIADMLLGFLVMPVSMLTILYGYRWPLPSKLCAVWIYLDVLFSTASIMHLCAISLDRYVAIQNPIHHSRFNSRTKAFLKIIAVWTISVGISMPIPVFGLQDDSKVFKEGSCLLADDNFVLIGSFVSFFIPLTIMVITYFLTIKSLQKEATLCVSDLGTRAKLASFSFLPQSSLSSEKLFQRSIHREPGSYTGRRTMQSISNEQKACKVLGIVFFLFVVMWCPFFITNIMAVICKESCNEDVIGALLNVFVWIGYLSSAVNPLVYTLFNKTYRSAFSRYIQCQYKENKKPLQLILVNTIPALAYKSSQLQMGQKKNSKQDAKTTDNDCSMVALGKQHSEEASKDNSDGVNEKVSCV
- ASSAY DETAILS: Agonist activity at human 5-HT2A receptor expressed in HEK293 cells incubated for 60 mins by BRET assay
MEASURED ENDPOINT: pEC50
One number for each entry, as −log10 of the molar value.

Input line: Would you kindly share the measured pEC50 for C[C@@H]1C=C(c2c[nH]c3ncccc23)CN(C)C1 ?
Output line: 6.96

----------
- Test system: VCaP
- ASSAY DETAILS: Antiproliferative activity against human VCaP cells expressing ERG level assessed as reduction in cell viability incubated for 72 hrs by CCK8 assay
MEASURED ENDPOINT: IC50

Input line: Would you kindly share the measured IC50 for O=C(N/N=C/c1ccc([N+](=O)[O-])o1)c1ccc(O)cc1 [NIFUROXAZIDE] ?
Output line: 2560 nM

----------
- SYSTEM NAME: Tyrosine-protein kinase JAK2 (Homo sapiens)
- Sequence (O60674 whole entry): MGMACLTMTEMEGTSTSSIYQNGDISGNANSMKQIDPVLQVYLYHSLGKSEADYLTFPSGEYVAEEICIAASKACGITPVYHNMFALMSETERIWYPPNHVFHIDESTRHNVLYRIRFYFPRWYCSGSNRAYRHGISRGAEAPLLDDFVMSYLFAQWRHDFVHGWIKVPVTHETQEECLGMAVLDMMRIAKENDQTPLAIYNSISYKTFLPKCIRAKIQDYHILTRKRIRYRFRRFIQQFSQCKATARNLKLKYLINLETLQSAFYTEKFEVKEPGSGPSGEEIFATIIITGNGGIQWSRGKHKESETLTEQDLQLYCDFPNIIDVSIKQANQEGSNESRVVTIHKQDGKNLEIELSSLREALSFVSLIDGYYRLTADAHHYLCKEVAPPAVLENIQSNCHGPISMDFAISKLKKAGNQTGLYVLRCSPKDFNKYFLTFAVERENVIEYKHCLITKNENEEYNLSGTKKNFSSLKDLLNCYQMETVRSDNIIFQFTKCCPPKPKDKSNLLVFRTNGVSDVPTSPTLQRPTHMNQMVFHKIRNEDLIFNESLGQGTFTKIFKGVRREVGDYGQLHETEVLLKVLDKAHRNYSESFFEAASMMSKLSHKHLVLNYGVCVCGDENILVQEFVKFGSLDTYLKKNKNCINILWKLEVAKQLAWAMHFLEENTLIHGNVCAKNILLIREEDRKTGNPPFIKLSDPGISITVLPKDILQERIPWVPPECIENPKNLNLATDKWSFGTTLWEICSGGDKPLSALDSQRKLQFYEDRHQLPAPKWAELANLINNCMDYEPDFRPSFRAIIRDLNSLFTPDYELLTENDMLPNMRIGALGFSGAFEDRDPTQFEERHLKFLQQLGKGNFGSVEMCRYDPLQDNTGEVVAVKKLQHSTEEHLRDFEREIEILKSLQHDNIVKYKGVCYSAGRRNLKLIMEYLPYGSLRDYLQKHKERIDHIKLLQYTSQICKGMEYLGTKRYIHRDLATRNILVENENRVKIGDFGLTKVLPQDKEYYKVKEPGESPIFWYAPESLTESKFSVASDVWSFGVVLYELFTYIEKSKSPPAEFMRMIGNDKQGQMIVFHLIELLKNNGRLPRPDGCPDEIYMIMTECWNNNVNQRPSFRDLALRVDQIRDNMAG
MEASURED ENDPOINT: IC50 (nM)
One number for each entry, in nM.

Input line: Would you kindly share the measured IC50 for COCc1cccc(CC(=O)Nc2ccc(-c3cn[nH]c3)cc2)c1 ?
Output line: 70

----------
What IC50 was measured for each of the following?
- SYSTEM NAME: Androgen receptor (Homo sapiens)
- Sequence (P10275 whole entry, the tested form may be a part): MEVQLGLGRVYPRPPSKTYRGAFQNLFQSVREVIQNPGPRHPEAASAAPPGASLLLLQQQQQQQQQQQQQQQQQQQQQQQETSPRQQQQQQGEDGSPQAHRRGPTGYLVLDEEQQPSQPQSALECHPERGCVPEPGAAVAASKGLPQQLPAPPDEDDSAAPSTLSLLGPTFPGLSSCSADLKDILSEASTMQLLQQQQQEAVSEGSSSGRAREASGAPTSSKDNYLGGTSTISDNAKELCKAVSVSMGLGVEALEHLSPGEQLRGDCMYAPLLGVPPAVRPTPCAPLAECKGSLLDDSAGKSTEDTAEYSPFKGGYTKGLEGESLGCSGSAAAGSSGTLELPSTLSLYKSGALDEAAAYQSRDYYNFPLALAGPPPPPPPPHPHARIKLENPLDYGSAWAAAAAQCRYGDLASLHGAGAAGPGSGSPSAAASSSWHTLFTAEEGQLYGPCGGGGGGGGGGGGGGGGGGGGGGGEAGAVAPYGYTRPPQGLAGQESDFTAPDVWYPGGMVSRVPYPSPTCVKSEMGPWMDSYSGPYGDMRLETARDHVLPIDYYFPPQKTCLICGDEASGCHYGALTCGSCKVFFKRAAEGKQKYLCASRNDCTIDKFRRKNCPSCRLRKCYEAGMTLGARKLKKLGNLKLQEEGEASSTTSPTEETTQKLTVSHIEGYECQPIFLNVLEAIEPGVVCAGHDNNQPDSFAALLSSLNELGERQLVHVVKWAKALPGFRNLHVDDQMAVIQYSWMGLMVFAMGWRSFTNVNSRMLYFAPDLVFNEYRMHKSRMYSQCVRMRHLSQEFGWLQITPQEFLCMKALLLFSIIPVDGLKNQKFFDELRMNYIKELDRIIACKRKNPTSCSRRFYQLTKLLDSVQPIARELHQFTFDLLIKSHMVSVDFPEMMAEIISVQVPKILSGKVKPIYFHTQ
- ASSAY DETAILS: Inhibition of full length human Androgen receptor DNA binding domain dimerization
Give bare numbers, in µM.

COMPOUND	VAL
O=C(NCc1cccc2ccccc12)NCC(O)(c1cccs1)c1cccs1	2

Consider the additional compound presented here.
Input line: Observed IC50 on Androgen receptor (Homo sapiens) for CC(O)(CNC(=O)/C=C/c1ccnc2ccccc12)c1ccsc1 (configuration not stated) , please.
Output line: 5

----------
- SYSTEM NAME: Myeloid differentiation primary response protein MyD88 (Homo sapiens, UniProt Q99836)
- Sequence (Q99836 whole entry): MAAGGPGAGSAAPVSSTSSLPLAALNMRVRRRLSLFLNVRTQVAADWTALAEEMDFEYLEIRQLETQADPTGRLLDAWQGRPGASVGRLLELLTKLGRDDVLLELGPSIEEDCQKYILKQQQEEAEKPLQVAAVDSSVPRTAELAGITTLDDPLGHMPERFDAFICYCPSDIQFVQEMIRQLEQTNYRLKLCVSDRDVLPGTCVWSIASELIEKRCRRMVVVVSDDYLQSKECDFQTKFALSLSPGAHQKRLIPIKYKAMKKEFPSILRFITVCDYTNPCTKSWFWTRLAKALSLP
MEASURED ENDPOINT: pKd
Answers are plain numbers, as −log10 of the molar value.

Input line: Observed pKd on Myeloid differentiation primary response protein MyD88 (Homo sapiens, UniProt Q99836) for O=C(CN1CCC(CCc2ccccc2)CC1)Nc1n[nH]c2ncccc12 , please.
Output line: 3.78

Data provenance is ChEMBL document CHEMBL6177941.
